The origin of these recorded values is ChEMBL document CHEMBL1148287.

Observed IC50, system UniProt P43235.
Sequence (P43235 whole entry): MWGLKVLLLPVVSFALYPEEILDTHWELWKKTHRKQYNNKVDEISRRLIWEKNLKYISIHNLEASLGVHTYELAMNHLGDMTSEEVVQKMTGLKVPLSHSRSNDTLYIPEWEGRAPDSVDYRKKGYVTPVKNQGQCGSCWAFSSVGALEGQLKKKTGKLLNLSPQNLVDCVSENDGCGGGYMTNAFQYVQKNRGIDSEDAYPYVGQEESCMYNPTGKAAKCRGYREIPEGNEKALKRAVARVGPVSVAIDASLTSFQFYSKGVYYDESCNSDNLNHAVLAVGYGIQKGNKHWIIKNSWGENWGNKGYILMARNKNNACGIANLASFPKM
measurement.kind: IC50 (µM)

{"columns": ["compound.structure", "measurement.kind", "obs.value"],
 "data": [
  ["CCCC[C@H](NC(=O)OC(C(C)C)C(C)C)C(=O)C(=O)Nc1ccnn1C1CCCC1", "IC50", 0.02],
  ["CC(C)C(OC(=O)N[C@@H](C)C(=O)C(=O)NCc1cccs1)C(C)C", "IC50", 0.36],
  ["CCCC[C@H](NC(=O)OC(C(C)C)C(C)C)C(=O)C(=O)Nc1cc[nH]n1", "IC50", 0.00077],
  ["CCCC[C@H](NC(=O)OC(C(C)C)C(C)C)C(=O)C(=O)Nc1ccc2ccccc2n1", "IC50", 0.25],
  ["CCCC[C@H](NC(=O)OC(C(C)C)C(C)C)C(=O)C(=O)Nc1[nH]ncc1Br", "IC50", 0.00024]
]}

====

Organism: Homo sapiens
Experiment: Selectivity as ratio between IC50 against Cathepsin V and IC50 against Cathepsin K

{"columns": ["compound.structure", "Ratio"],
 "data": [
  ["CCCC[C@H](NC(=O)OC(C(C)C)C(C)C)C(=O)C(=O)Nc1ccnn1-c1ccccn1", 19],
  ["CCCC[C@H](NC(=O)OC(C(C)C)C(C)C)C(=O)C(=O)Nc1ccnn1-c1ccncc1", 19],
  ["CCCC[C@H](NC(=O)OC(C(C)C)C(C)C)C(=O)C(=O)Nc1[nH]ncc1C", 14],
  ["CCCC[C@H](NC(=O)OC(C(C)C)C(C)C)C(=O)C(=O)Nc1ccnn1C", 50],
  ["CCCC[C@H](NC(=O)OC(C(C)C)C(C)C)C(=O)C(=O)Nc1ccnn1CC1CC1", 63]
]}

====

Assay: Selectivity as ratio between IC50 against Cathepsin L and IC50 against Cathepsin K

{"columns": ["compound.structure", "Ratio"],
 "data": [
  ["CCCC[C@H](NC(=O)OC(C(C)C)C(C)C)C(=O)C(=O)Nc1[nH]ncc1C", 26],
  ["CCCC[C@H](NC(=O)OC(C(C)C)C(C)C)C(=O)C(=O)Nc1[nH]ncc1-c1ccccc1", 25],
  ["CCCC[C@H](NC(=O)OC(C(C)C)C(C)C)C(=O)C(=O)Nc1ccnn1CC1CC1", 220],
  ["CCCC[C@H](NC(=O)OC(C(C)C)C(C)C)C(=O)C(=O)Nc1ccnn1C1CCC1", 290],
  ["CCCC[C@H](NC(=O)OC(C(C)C)C(C)C)C(=O)C(=O)Nc1cc(-c2ccccc2)[nH]n1", 25],
  ["CCCC[C@H](NC(=O)OC(C(C)C)C(C)C)C(=O)C(=O)Nc1ccnn1-c1ccccn1", 40],
  ["CCCC[C@H](NC(=O)OC(C(C)C)C(C)C)C(=O)C(=O)Nc1cc[nH]n1", 40],
  ["CCCC[C@H](NC(=O)OC(C(C)C)C(C)C)C(=O)C(=O)Nc1ccnn1CC(C)C", 260],
  ["CCCC[C@H](NC(=O)OC(C(C)C)C(C)C)C(=O)C(=O)Nc1ccnn1C", 250],
  ["CCCC[C@H](NC(=O)OC(C(C)C)C(C)C)C(=O)C(=O)Nc1ccnn1-c1ccncc1", 44]
]}

====

Each entry below carries its recorded Ratio.
Test: Selectivity ratio between IC50 against Cathepsin S and IC50 against Cathepsin K
measurement.kind: Ratio

{"columns": ["compound.structure", "measurement.kind", "obs.value"],
 "data": [
  ["CCCC[C@H](NC(=O)OC(C(C)C)C(C)C)C(=O)C(=O)Nc1cc(C)[nH]n1", "Ratio", 4.6],
  ["CCCC[C@H](NC(=O)OC(C(C)C)C(C)C)C(=O)C(=O)Nc1ccnn1-c1ccncc1", "Ratio", 5.4],
  ["CCCC[C@H](NC(=O)OC(C(C)C)C(C)C)C(=O)C(=O)Nc1ccnn1C", "Ratio", 91],
  ["CCCC[C@H](NC(=O)OC(C(C)C)C(C)C)C(=O)C(=O)Nc1ccnn1CC1CC1", "Ratio", 41],
  ["CCCC[C@H](NC(=O)OC(C(C)C)C(C)C)C(=O)C(=O)Nc1[nH]ncc1C#N", "Ratio", 3.6],
  ["CCCC[C@H](NC(=O)OC(C(C)C)C(C)C)C(=O)C(=O)Nc1ccnn1C1CCC1", "Ratio", 130],
  ["CCCC[C@H](NC(=O)OC(C(C)C)C(C)C)C(=O)C(=O)Nc1cc(-c2ccccc2)[nH]n1", "Ratio", 7],
  ["CCCC[C@H](NC(=O)OC(C(C)C)C(C)C)C(=O)C(=O)Nc1ccnn1CC(C)C", "Ratio", 59],
  ["CCCC[C@H](NC(=O)OC(C(C)C)C(C)C)C(=O)C(=O)Nc1[nH]ncc1C(=O)OCC", "Ratio", 3.6]
]}
